meta.source: patent US10941157B2

Test system: Phytophthora capsici (Pc)
EXPERIMENT NOTES: In vitro pathogen growth inhibition assay, Pc
Format: cell-based
EXPERIMENTAL SETUP: 48 h, ≥90% inhibition, 48 hours vs 2% DMSO control, read-out: Compound Concentration (ppm) sufficient for ≥90% inhibition of growth, Pc
As shown below, each of these compounds has a reported IC90 value.
ATTRIBUTE MEASURED: IC90

{"columns": ["COMPOUND", "OBSERVED VALUE"],
 "data": [
  ["COc1ccccc1[C@H](Cn1c(=O)n(C(C)(C)C(=O)N2CCCCC2)c(=O)c2c(C)c(-n3cccn3)sc21)OCC(C)C [Compound I-121]", "> 50 µg/mL"],
  ["CCOC(=O)c1sc2c(c1C)c(=O)n(C(C)(C)C(=O)O)c(=O)n2C[C@H](OC(C)C)c1ccccc1OC [Compound I-153]", "> 50 µg/mL"],
  ["COc1ccc(F)cc1[C@H](Cn1c(=O)n(C(C)(C)C(=O)NC2CCC2)c(=O)c2c(C)c(-n3nccn3)sc21)OC1CCOCC1 [Compound I-038]", "10 µg/mL"],
  ["COc1ccccc1[C@H](Cn1c(=O)n(C(C)(C)C(=O)NC(C)C)c(=O)c2c(C)c(-c3ncco3)sc21)OC1CCC(=O)CC1 [Compound I-013]", "> 50 µg/mL"],
  ["COc1ccccc1[C@H](Cn1c(=O)n(C(C)(C)C(=O)N2CC(O)C2)c(=O)c2c(C)c(-n3nccn3)sc21)OC1CCOCC1 [Compound I-156]", "> 50 µg/mL"],
  ["COc1ccccc1[C@H](Cn1c(=O)n(C(C)(C)C(=O)N2CCCC2)c(=O)c2c(C)c(-n3cccn3)sc21)OC(C)C [Compound I-046]", "> 50 µg/mL"],
  ["COc1ccc(F)cc1[C@H](Cn1c(=O)n(C(C)(C)C(=O)N2CC=CC2)c(=O)c2c(C)c(-n3cccn3)sc21)OC1CCOCC1 [Compound I-162]", "> 50 µg/mL"],
  ["C=CCO[C@@H](Cn1c(=O)n(C(C)(C)C(=O)NC(C)C)c(=O)c2c(C)c(-n3nccn3)sc21)c1cc(F)ccc1OC [Compound I-077]", "> 50 µg/mL"],
  ["COc1ccccc1[C@H](Cn1c(=O)n(C(C)(C)C(=O)OCc2ccccc2)c(=O)c2c(C)c(-c3ncco3)sc21)OC1CCC(=O)CC1 [Compound I-107]", "> 50 µg/mL"],
  ["COCCO[C@@H](Cn1c(=O)n(C(C)(C)C(=O)NC(C)C)c(=O)c2c(C)c(-n3nccn3)sc21)c1cc(F)ccc1OC [Compound I-074]", "≥ 50 µg/mL"],
  ["COc1ccc(F)cc1[C@H](Cn1c(=O)n(C(C)(C)C(=O)NC(C)C)c(=O)c2c(C)c(-n3nccn3)sc21)OCC(C)C [Compound I-026]", "> 50 µg/mL"],
  ["COc1ccccc1[C@H](Cn1c(=O)n(C(C)(C)C(=O)N2CCCCC2)c(=O)c2c(C)c(-n3cccn3)sc21)OC(C)C [Compound I-047]", "> 50 µg/mL"],
  ["COc1ccc(F)cc1[C@H](Cn1c(=O)n(C(C)(C)C(=O)NC(C)C)c(=O)c2c(C)c(-n3nccn3)sc21)OCC(C)(C)O [Compound I-072]", "10 µg/mL"]
]}

###

System: Phytophthora capsici (Pc)
EXPERIMENT NOTES: In vitro pathogen growth inhibition assay, Pc
Type: cell-based
EXPERIMENTAL SETUP: 48 h, ≥90% inhibition, 48 hours vs 2% DMSO control, read-out: Compound Concentration (ppm) sufficient for ≥90% inhibition of growth, Pc
As shown below, each of these compounds has a reported IC90 value.

{"columns": ["COMPOUND", "TEST TARGET", "IC90"],
 "data": [
  ["COc1ccc(F)cc1[C@H](Cn1c(=O)n(C(C)C(=O)NC(C)C)c(=O)c2c(C)c(-n3cccn3)sc21)OC(C)C (stereo partly shown) [Compound I-126]", "Phytophthora capsici (Pc)", "50 µg/mL"],
  ["COc1ccccc1[C@H](Cn1c(=O)n(C(C)(C)C(N)=O)c(=O)c2c(C)c(-n3nccn3)sc21)OC1CCOCC1 [Compound I-031]", "Phytophthora capsici (Pc)", "> 50 µg/mL"],
  ["COc1ccc(F)cc1[C@H](Cn1c(=O)n([C@@H](C)C(=O)N(C)C(C)C)c(=O)c2c(C)c(-n3nccn3)sc21)OCCO [Compound I-089]", "Phytophthora capsici (Pc)", "≥ 50 µg/mL"],
  ["COc1ccc(F)cc1[C@H](Cn1c(=O)n(C(C)(C)C(=O)N2CCCC2)c(=O)c2c(C)c(-n3nccn3)sc21)OCC(C)(C)O [Compound I-073]", "Phytophthora capsici (Pc)", "> 50 µg/mL"],
  ["CCOC(=O)c1sc2c(c1C)c(=O)n(C(C)(C)C(=O)N1CCCCC1)c(=O)n2C[C@H](OC(C)C)c1ccccc1OC [Compound I-006]", "Phytophthora capsici (Pc)", "> 50 µg/mL"],
  ["Cc1c(-n2nccn2)sc2c1c(=O)n(C(C)(C)C(=O)NC(C)C)c(=O)n2C[C@H](OC(C)C)c1cc(F)ccc1OCCO [Compound I-071]", "Phytophthora capsici (Pc)", "≥ 50 µg/mL"],
  ["CCOC(=O)c1sc2c(c1C)c(=O)n(C(C)(C)C(=O)N1CCCC1)c(=O)n2C[C@H](OC1CCOCC1)c1ccccc1OC [Compound I-003]", "Phytophthora capsici (Pc)", "> 50 µg/mL"],
  ["COc1ccccc1[C@H](Cn1c(=O)n(C(C)(C)C(=O)NC(C)C)c(=O)c2c(C)c(-n3nccn3)sc21)OC1CCOCC1 [Compound I-029]", "Phytophthora capsici (Pc)", "50 µg/mL"],
  ["COc1ccc(F)cc1[C@H](Cn1c(=O)n(CC(=O)N2CCCC2)c(=O)c2c(C)c(-n3nccn3)sc21)OCCO [Compound I-088]", "Phytophthora capsici (Pc)", "> 50 µg/mL"],
  ["COc1ccc(F)cc1[C@H](Cn1c(=O)n(C(C)(C)C(=O)N2CC(O)C2)c(=O)c2c(C)c(-n3nccn3)sc21)OC1CCOCC1 [Compound I-114]", "Phytophthora capsici (Pc)", "> 50 µg/mL"],
  ["CCOC(=O)c1sc2c(c1C)c(=O)n(C(C)(C)C(=O)NC(C)C)c(=O)n2C[C@H](OC1CCOCC1)c1ccccc1OC [Compound I-008]", "Phytophthora capsici (Pc)", "> 50 µg/mL"],
  ["COc1ccc(F)cc1[C@H](Cn1c(=O)n([C@H](C)C(=O)NC(C)C)c(=O)c2c(C)c(-n3cccn3)sc21)OC(C)C [Compound I-127]", "Phytophthora capsici (Pc)", "> 50 µg/mL"],
  ["CCNC(=O)C(C)(C)n1c(=O)c2c(C)c(-n3nccn3)sc2n(C[C@H](OCC(C)C)c2cc(F)ccc2OC)c1=O [Compound I-025]", "Phytophthora capsici (Pc)", "> 50 µg/mL"],
  ["COc1ccccc1[C@H](Cn1c(=O)n(C(C)(C)C(=O)N2CCOCC2)c(=O)c2c(C)c(-c3ncco3)sc21)OC(C)C [Compound I-143]", "Phytophthora capsici (Pc)", "> 50 µg/mL"],
  ["COc1ccc(F)cc1[C@H](Cn1c(=O)n(C(C)(C)C(=O)NC(C)C)c(=O)c2c(C)c(-n3nccn3)sc21)OC[C@@H](C)O [Compound I-065]", "Phytophthora capsici (Pc)", "≥ 2 µg/mL"],
  ["COCCCO[C@@H](Cn1c(=O)n([C@@H](C)C(=O)NC(C)C)c(=O)c2c(C)c(-n3nccn3)sc21)c1cc(F)ccc1OC [Compound I-093]", "Phytophthora capsici (Pc)", "> 50 µg/mL"],
  ["COc1ccccc1[C@H](Cn1c(=O)n(C(C)(C)C(=O)N2CCCC2)c(=O)c2c(C)c(-n3cccn3)sc21)OCC(C)C [Compound I-120]", "Phytophthora capsici (Pc)", "> 50 µg/mL"],
  ["CCNC(=O)C(C)(C)n1c(=O)c2c(C)c(-n3nccn3)sc2n(C[C@H](OC2CCOCC2)c2ccccc2OC)c1=O [Compound I-032]", "Phytophthora capsici (Pc)", "> 50 µg/mL"],
  ["COc1ccccc1[C@H](Cn1c(=O)n(C(C)(C)C(=O)N2CCCCC2)c(=O)c2c(C)c(-c3ncco3)sc21)OC1CCC(=O)CC1 [Compound I-106]", "Phytophthora capsici (Pc)", "> 50 µg/mL"],
  ["COc1ccc(F)cc1[C@H](Cn1c(=O)n(CC(=O)N2CCCC2)c(=O)c2c(C)c(-n3cccn3)sc21)OC(C)C [Compound I-128]", "Phytophthora capsici (Pc)", "> 50 µg/mL"],
  ["COc1ccc(F)cc1[C@H](Cn1c(=O)n(C(C)(C)C(=O)NC(C)C)c(=O)c2c(C)c(-n3cccn3)sc21)O[C@H]1CC[C@@H](O)CC1 [Compound I-049]", "Phytophthora capsici (Pc)", "> 50 µg/mL"],
  ["COc1ccc(F)cc1[C@H](Cn1c(=O)n(CC(=O)NC(C)C)c(=O)c2c(C)c(-n3nccn3)sc21)OC(C)C [Compound I-060]", "Phytophthora capsici (Pc)", "> 50 µg/mL"],
  ["COc1ccccc1[C@H](Cn1c(=O)n(C(C)(C)C(=O)NC2CCC2)c(=O)c2c(C)c(-c3ncco3)sc21)OC(C)C [Compound I-098]", "Phytophthora capsici (Pc)", "> 50 µg/mL"],
  ["COc1ccc(F)cc1[C@H](Cn1c(=O)n(C(C)(C)C(=O)NC(C)C)c(=O)c2c(C)c(-n3nccn3)sc21)OC[C@H](C)O [Compound I-066]", "Phytophthora capsici (Pc)", "50 µg/mL"],
  ["COc1ccc(F)cc1[C@H](Cn1c(=O)n(C(C)(C)C(=O)N2CCCCC2)c(=O)c2c(C)c(-n3cccn3)sc21)OC(C)C [Compound I-002]", "Phytophthora capsici (Pc)", "> 50 µg/mL"]
]}
